METRIC NAME: melting point

Sample records with melting point:
# SMI, melting point
records = [
    ("Cc1cc(OCc2ccc(-c3ccccc3-c3nnn(C(c4ccccc4)(c4ccccc4)c4ccccc4)n3)cc2)c(-c2cncnc2)c(C)n1", "171 to 172 °C"),
    ("COc1ccc(CCc2ccc(NC(=O)C(=O)C3=C(O)c4ccccc4SC3)cc2)cc1OC", "184 to 185 °C"),
    ("NC(=C[N+](=O)[O-])NCc1ccc(Cl)cc1", "215 to 216 °C"),
]

Dear colleague, could you send me melting point for each of the items below? Thanks.
1. Cc1cc(N)c(C(=O)O)cc1F
2. CCOC(=O)C(=O)Nc1ccc2cccc([N+](=O)[O-])c2c1[N+](=O)[O-]
3. COC(=O)CCNC(=O)c1ccc2c(c1)nc(-c1ccc(C(=N)N)cc1)n2CCC(c1ccccc1)c1ccccc1
4. CCOc1cc(OCCCc2cn(-c3ccc(C(F)(F)F)cn3)nc2O)ccc1CCC(=O)OC
5. N#Cc1cc(-n2ccc(-c3ccc(F)cc3)n2)cc(S(N)(=O)=O)c1

1: 201 to 202 °C; 2: 233 °C; 3: > 200 °C; 4: 147 to 148 °C; 5: 184 to 185 °C

Please give melting point for each item listed below.
1. O=C(c1ccc(F)cc1)c1ccnc(Cl)c1
2. CC(C)(C)c1cc(CCCCCCc2cc(C(C)(C)C)c(O)c(C(C)(C)C)c2)cc(C(C)(C)C)c1O
3. Cc1ccc2ccc(O)c(CC(=O)O)c2c1
4. Nc1ncc2c(n1)-c1ccc(Cl)cc1C(c1ccccc1Cl)=NC2
5. O=C(CC(c1ccccc1)c1ccccc1)N1CCC(N2Cc3ccccc3C2=O)CC1
6. CCOC(=O)c1cnc2nc(N3CCN(C)CC3)ncc2c1OCC

1: 60 to 63 °C; 2: 147 to 149 °C; 3: 138 to 140 °C; 4: 240 to 241 °C; 5: 166 to 169 °C; 6: 105 to 108 °C

====

Please provide measured melting point for the entries that follow.

# MOLECULE, melting point
rows = [
    ("c1cc2c(c3c1CCN3)OCCO2", "130 to 132 °C"),
    ("CC(=O)NC[C@H]1CN(c2ccc(N3CCC(COc4ccon4)CC3)c(F)c2)C(=O)O1", "163 to 165 °C"),
]

For each entry beneath this line, provide reported melting point.
1. CCOC(=O)COc1ccc(Br)cc1C(C)=O
2. COc1ccc(-c2nc(-c3ccccc3Cl)sc2-c2ccc(S(C)(=O)=O)cc2)cc1
3. CN(C)c1ccccc1CC(=O)N1C[C@@H]2C(=O)CCC(c3ccccc3)(c3ccccc3)[C@@H]2C1
4. COC(=O)[C@H](Cc1cccc2ccccc12)NC(=O)[C@H](CC(=O)OC(C)(C)C)NC(=O)c1cccc(NC(=O)C(Cc2ccc(C#N)cc2)NC(=O)OC(C)(C)C)c1 (mixture of isomers)
5. CC(=O)NCCn1ccc2c1-c1cc(Cl)ccc1CC2
6. O=C(O)CCCC(=O)S[C@@H]1CC(=O)N(Cc2ccc(Oc3ccc(F)cc3)nc2)C1

1. 66 to 68 °C
2. 172 to 174 °C
3. 150 °C
4. 182 to 185 °C
5. 144 to 146 °C
6. 132 to 133 °C

====

I'd appreciate it if you could supply melting point values for the items below.

Recorded melting point, per entry:
# COMPOUND, melting point
rows = [
    ("COC(=O)CN1CCN(C(=O)OC(C)(C)C)C(Cc2ccc(OCc3ccccc3)cc2)C1=O (centres undefined)", "84 to 87 °C"),
    ("CCOC(=O)c1sc(SC)c2c1CCC(C(OCC)OCC)C2=O (centres undefined)", "113 to 114 °C"),
]

Go through the items and report each one's melting point.
1. Fc1ccc(-c2nc(S)[nH]c2-c2ccncc2)cc1
2. COc1ccnc(-c2nc(=O)c3ccccc3s2)c1
3. Fc1cccc(F)c1-c1nc(C(F)(F)F)n(-c2ccccc2C(F)(F)F)n1
4. COc1cc(Cc2cnc(N)nc2N)cc2c(C)cc(C)nc12
5. COc1ccc(Oc2cnccc2N)c2ccccc12
6. CC(CCC(=O)NC(C)(C)C)C1CC=C2C3=C(CCC21C)C1(C)CCC(O)C(C)(C)C1CC3 (centres undefined)
7. O=C(Oc1ccc(N2c3ccccc3S(=O)(=O)c3ccccc32)cc1)c1ccccc1

["386 to 388 °C", "214 to 215 °C", "90 °C", "289 to 290 °C", "126 to 129 °C", "171 to 176 °C", "233 to 235 °C"]

====

Assignment: determine reported melting point for the given molecules.

# MOLECULE, melting point
records = [
    ("CN1CCC(=C2c3cc(Cl)ccc3CCn3ncnc32)CC1", "176 °C"),
    ("CCCCC(Cc1ccc(OCCNC(=O)c2ccc(N3CCCCC3)cc2)cc1)C(=O)O (configuration not stated)", "112 to 114 °C"),
    ("CC(C)[C@@H]1C[C@@H]([C@H](CC2CCCCC2)N=[N+]=[N-])OC1=O", "38.5 to 39 °C"),
    ("CCc1cc(C(=O)c2ccccc2Cl)c(-n2c(C)nnc2CNC(=O)c2cc3ccccc3n2CC(=O)O)s1", "208 to 210 °C"),
    ("Cc1ccc([C@@H](O)[C@@H]2[C@@H](C)CCCC2(C)C)cc1", "78 to 79 °C"),
    ("CSC(SC)=C(C(=O)c1ccc(C(F)(F)F)cc1S(C)(=O)=O)C(=O)C1CC1", "137 to 139 °C"),
]

List melting point for every entry below, keeping the order given.
1. Cc1cc2n(C)c(=O)c3cnc(Cl)cc3n2n1
2. COC(=O)c1c(N(C)C(C)=O)cc(C)cc1N(C)C(C)=O
3. CC(C)c1cc2nc(N)sc2cc1Sc1ccc(CCc2ccc(F)cc2)c(CCC2=C(O)CC(C(C)C)OC2=O)c1 (configuration not stated)
4. CC(O)CN1C(=O)N(CC(C)O)C(C)(C)C1=O (configuration not stated)
5. Cc1c(Cl)cccc1S(=O)(=O)Nc1ccc2nccnc2c1
6. O=C(C=Cc1cc(O)c(O)c(C(F)(F)F)c1)c1ccccc1
7. COC(=O)C(C(=O)OC)=C1SC=CS1

1: 254 °C; 2: 163 to 164 °C; 3: 204 to 206 °C; 4: 65 to 67 °C; 5: 166 to 167 °C; 6: 196 to 201 °C; 7: 125 to 129 °C

Working through the 4 molecules below one at a time, give melting point for each.
1. Cc1nc2cc(-c3nn(C(C)c4oc5ccccc5c(=O)c4-c4cccc(F)c4)c4ncnc(N)c34)ccc2[nH]1 (configuration not stated)
2. Cc1c(OCC(F)(F)F)ccnc1CSc1nc2ccccc2n1NC(=O)OC(C)(C)C
3. CCC1CCN(Cc2ccc(COc3cccc4c3CN(C3CCC(=O)NC3=O)C4=O)cc2)CC1 (configuration not stated)
4. CC1(C)Oc2ccc(CNc3ccc(Cl)cc3)cc2OC1=O

1. 154 to 156 °C
2. 153 to 155 °C
3. 180 to 182 °C
4. 97 to 98 °C

====

METRIC NAME: melting point

# COMPOUND, melting point
data = [
    ("CC(C)CCSC1CC(CO)OC1n1ccc(=O)[nH]c1=O (configuration not stated)", "131 to 133 °C"),
    ("O=C(c1ccc(Cl)c(Cl)c1)N(CCCCn1ccnc1)C1=Nc2cccc3cccc1c23", "138 to 141 °C"),
    ("CC(=O)OC1CC(COC(=O)c2ccccc2)OC1n1cc(F)c(=O)[nH]c1=O (configuration not stated)", "68 to 70 °C"),
    ("CC(=O)C1C(=O)CC(CCS(=O)c2ccc(C(F)(F)F)cc2)CC1=O (configuration not stated)", "99 to 100 °C"),
    ("CCc1cccc(CC(=O)O)c1OCCCc1cn(-c2ccc(Cl)cn2)nc1C(C)C", "142 to 143 °C"),
]

Below are 2 compounds. Give each one its melting point.
1. Clc1cc(Cl)n2ncc(Br)c2n1
2. Cc1cc(CSCCNC(=C[N+](=O)[O-])NCC(O)c2ccccc2)sc1CN(C)C (configuration not stated)

["73 to 75 °C", "114 to 115 °C"]

====

Consider the following molecules; for each one, report its melting point.
One number for each entry, in °C.

# SMI, ENDPOINT RESULT
data = [
    ("COc1ccc(Br)cc1N(C=NCl)C1CC1", 185),
]

What does the record list as melting point for O=C(O)[C@H](Cc1c[nH]c2ccccc12)NC(=O)[C@@H]1C[C@H](S)CN1S(=O)(=O)c1ccc2ccccc2c1 ? 130

====

Task for the reader: assign each of the following compounds its reported melting point.

Some entries whose results are on file:
# COMPOUND, melting point
data = [
    ("CC(=O)c1ccc2c(c1)C(C)(C)c1cccnc1O2", "106 to 108 °C"),
    ("CCCCCCCCCCCCCCCC(=O)N[C@@H](Cc1ccc(O)cc1)C(=O)OC", "100 °C"),
    ("CCCOc1ccccc1-c1nc(CO)c[nH]1", "90 to 92 °C"),
]

Your task in this section: give melting point for each listed record.
1. Cc1cc(C2(C(F)(F)F)CC(c3ccc(C(N)=O)cc3)=NO2)ccc1NC(=O)c1cccc(I)c1C(=O)NC(C)C (centres undefined)
2. N#CC1(c2ccccc2)CCN(Cc2ccccc2)CC1
3. Cc1c2ccccc2c(-c2ccc(OS(C)(=O)=O)cc2)c2c1sc1ccccc12
4. COc1cccc2c(Nc3ccccc3C)c(C(C)=O)cnc12
5. O=C1C2=C(CCCC2)C(=O)N1c1c(F)cc(Cl)c2c1CC(CO)O2 (centres undefined)
6. ClC1=Nc2ccccc2Oc2c1csc2Cl
7. CCOC(=O)Cc1csc(NC(=O)C(Cc2ccccc2)NC(=O)OC(C)(C)C)n1 (centres undefined)
8. COc1cc(C)c(C(=O)c2c(Cl)cccc2Cl)cc1Oc1ccccc1

173 to 175 °C
73 to 74 °C
172 to 173 °C
171 to 173 °C
193 to 195 °C
144 to 145 °C
119 to 120 °C
89 °C
